experiment: Microsomal stability in human liver microsomes incubated for 30 mins by LC-MS/MS analysis; assay type: ADME, Microsome; conditions: read-out: Stabilty
Each entry below carries its reported remaining at 0.5 h.

RECORD_SMILES | remaining at 0.5 h
COc1ncc2cc1NS(=O)(=O)c1ccc(F)c(c1)C(=O)NCC1=CC=C(S1)c1ncnc3c1SC2=C3C | > 98%
COc1ncc2cc1NS(=O)(=O)c1cccc(c1)C(=O)NCC1=CC=C(S1)c1ncnc3c1SC2=C3C | > 98%

---

test: AUClast in BALB/c mouse at 0.7 mg/kg, iv; assay type: ADME, organism-based; set-up: route intravenous, time 0 - last, dose 0.7 mg/kg; settings: in vivo
MEASURED_ATTRIBUTE: AUC(0-t) (ng·h/mL)

RECORD_SMILES | UNIT_NAME | VAL
COc1ncc2cc1NS(=O)(=O)c1ccc(F)c(c1)C(=O)NCC1=CC=C(S1)c1ncnc3c1SC2=C3C | ng·h/mL | 11200

---

assay: Cmax in BALB/c mouse at 5 mg/kg, po; assay type: ADME, organism-based; parameters: route oral, dose 5 mg/kg; settings: in vivo

RECORD_SMILES | UNIT_NAME | Cmax
COc1ncc2cc1NS(=O)(=O)c1ccc(F)c(c1)C(=O)NCC1=CC=C(S1)c1ncnc3c1SC2=C3C | µg/mL | 9.37

---

experiment: AUClast in BALB/c mouse at 1 mg/kg, iv; assay type: ADME, organism-based; set-up: route intravenous, time 0 - last, dose 1 mg/kg; settings: in vivo

RECORD_SMILES | AUC(0-t), ng·h/mL
COc1ncc2cc1NS(=O)(=O)c1cccc(c1)C(=O)NCC1=CC=C(S1)c1ncnc3c1SC2=C3C | 16600

---

Each entry below carries its reported IC50.
target: Serine/threonine-protein kinase pim-1 (Homo sapiens)

RECORD_SMILES | TARGET | INEQUALITY_OPERATOR | IC50 / nM
COc1ncc2cc1NS(=O)(=O)c1ccc(Cl)c(c1)C(=O)NCC1=CC=C(S1)c1ncnc3c1SC2=C3 | Serine/threonine-protein kinase pim-1 (Homo sapiens) | = | 11.1
COc1ncc2cc1NS(=O)(=O)c1cccc(c1)C(=O)NCc1cccc(c1)-c1ncnc3c1SC2=C3 | Serine/threonine-protein kinase pim-1 (Homo sapiens) | = | 279
COc1ncc2cc1NS(=O)(=O)c1cccc(c1)C(=O)NCC1=CC=C(O1)c1ncnc3c1SC2=C3 | Serine/threonine-protein kinase pim-1 (Homo sapiens) | = | 247
COc1ncc2cc1NS(=O)(=O)c1cccc(c1)C(=O)NCc1nc(cs1)-c1ncnc3c1SC2=C3 | Serine/threonine-protein kinase pim-1 (Homo sapiens) | > | 10000
COc1ncc2cc1NS(=O)(=O)c1ccc(F)c(c1)C(=O)NCC1=CC=C(S1)c1ncnc3c1SC2=C3C | Serine/threonine-protein kinase pim-1 (Homo sapiens) | = | 22.3

---

target: Serine/threonine-protein kinase pim-1 (Homo sapiens, UniProt P11309); test: Inhibition of human PIM1 using ARKRRRHPSGPPTA as substrate measured after 1.5 hrs by ADP hunter plus assay
Sequence (P11309 whole entry): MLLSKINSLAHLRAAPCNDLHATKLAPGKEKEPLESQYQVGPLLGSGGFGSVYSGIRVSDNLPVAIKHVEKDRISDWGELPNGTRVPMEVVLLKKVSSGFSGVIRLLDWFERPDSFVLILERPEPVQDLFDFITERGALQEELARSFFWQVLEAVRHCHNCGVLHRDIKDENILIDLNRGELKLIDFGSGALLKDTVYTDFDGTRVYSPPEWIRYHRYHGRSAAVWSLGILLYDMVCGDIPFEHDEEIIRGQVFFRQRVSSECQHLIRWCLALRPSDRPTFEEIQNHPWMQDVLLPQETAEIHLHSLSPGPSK
pIC50: −log10 of the molar value.
Each entry below carries its reported pIC50.

RECORD_SMILES | INEQUALITY_OPERATOR | pIC50
COc1ncc2cc1NS(=O)(=O)c1cccc(c1)C(=O)NCCn1cc(cn1)-c1ncnc3c1SC2=C3 | = | 6.59
COc1ncc2cc1NS(=O)(=O)c1cccc(c1)C(=O)NCc1csc(c1)-c1ncnc3c1SC2=C3 | = | 7.88
COc1ncc2cc1NS(=O)(=O)c1cccc(c1)C(=O)NC[C@@H]1CN(CCO1)c1ncnc3c1SC2=C3C | = | 7.41
COc1ncc(-c2sc3c(-c4cccs4)ncnc3c2C)cc1NS(=O)(=O)c1ccccc1 | < | 5.00

---

target: PI3K p110 beta/p85 alpha (Homo sapiens); assay: Inhibition of human PI3K p110beta/p85alpha by HTRF assay
Sequence (P27986 whole entry): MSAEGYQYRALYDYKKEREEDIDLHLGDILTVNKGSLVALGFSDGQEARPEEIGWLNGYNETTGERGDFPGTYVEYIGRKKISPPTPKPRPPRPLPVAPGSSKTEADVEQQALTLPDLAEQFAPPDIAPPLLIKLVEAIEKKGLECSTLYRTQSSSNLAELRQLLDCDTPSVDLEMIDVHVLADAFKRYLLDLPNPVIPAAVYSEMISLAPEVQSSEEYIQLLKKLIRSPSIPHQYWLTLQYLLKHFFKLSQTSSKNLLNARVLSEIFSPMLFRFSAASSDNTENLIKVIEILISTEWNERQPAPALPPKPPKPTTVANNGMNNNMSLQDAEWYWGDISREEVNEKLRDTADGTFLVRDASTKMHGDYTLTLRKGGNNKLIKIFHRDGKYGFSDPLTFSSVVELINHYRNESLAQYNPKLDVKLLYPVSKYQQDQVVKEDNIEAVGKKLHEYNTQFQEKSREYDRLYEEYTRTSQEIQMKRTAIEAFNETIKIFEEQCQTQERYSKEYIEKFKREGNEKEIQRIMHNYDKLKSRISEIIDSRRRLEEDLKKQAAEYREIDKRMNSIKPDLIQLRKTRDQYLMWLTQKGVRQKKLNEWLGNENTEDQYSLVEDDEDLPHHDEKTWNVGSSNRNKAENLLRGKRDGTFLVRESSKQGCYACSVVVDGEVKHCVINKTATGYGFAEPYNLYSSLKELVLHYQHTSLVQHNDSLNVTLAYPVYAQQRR
Sequence (P42338 whole entry): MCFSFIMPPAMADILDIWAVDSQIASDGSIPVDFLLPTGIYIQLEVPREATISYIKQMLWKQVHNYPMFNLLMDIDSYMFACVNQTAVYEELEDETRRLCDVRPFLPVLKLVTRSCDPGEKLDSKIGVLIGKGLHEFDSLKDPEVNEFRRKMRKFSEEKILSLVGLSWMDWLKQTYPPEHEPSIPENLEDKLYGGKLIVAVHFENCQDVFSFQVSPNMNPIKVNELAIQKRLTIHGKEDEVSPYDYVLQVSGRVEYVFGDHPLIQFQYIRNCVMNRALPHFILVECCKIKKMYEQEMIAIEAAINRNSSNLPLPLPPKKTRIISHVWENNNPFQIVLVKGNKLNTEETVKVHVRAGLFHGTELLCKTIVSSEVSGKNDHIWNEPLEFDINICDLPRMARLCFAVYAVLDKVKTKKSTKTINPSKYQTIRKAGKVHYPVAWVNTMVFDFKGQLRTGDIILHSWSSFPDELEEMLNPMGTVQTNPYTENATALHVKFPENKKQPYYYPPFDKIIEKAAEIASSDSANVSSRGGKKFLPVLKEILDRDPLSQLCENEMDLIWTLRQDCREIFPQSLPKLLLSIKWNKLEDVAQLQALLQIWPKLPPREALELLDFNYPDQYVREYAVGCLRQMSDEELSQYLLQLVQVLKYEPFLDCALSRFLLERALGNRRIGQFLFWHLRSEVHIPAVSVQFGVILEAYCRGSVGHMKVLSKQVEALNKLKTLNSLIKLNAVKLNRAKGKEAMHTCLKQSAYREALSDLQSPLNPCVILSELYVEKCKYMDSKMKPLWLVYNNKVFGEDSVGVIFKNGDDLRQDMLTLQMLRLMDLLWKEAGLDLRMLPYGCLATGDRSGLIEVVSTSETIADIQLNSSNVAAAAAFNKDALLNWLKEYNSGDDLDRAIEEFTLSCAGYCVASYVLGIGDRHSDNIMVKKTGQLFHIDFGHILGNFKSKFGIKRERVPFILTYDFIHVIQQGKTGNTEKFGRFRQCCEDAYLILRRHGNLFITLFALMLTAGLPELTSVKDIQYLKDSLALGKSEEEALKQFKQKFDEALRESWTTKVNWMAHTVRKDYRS

RECORD_SMILES | TARGET | Ki (nM)
COc1ncc2cc1NS(=O)(=O)c1cccc(c1)C(=O)NCC1=CC=C(S1)c1ncnc3c1SC2=C3C | PI3K p110 beta/p85 alpha (Homo sapiens) | 0.37
COc1ncc2cc1NS(=O)(=O)c1ccc(F)c(c1)C(=O)NCC1=CC=C(S1)c1ncnc3c1SC2=C3C | PI3K p110 beta/p85 alpha (Homo sapiens) | 0.31

---

biological target: Cytochrome P450 2C9 (Homo sapiens)
Sequence (P11712 whole entry): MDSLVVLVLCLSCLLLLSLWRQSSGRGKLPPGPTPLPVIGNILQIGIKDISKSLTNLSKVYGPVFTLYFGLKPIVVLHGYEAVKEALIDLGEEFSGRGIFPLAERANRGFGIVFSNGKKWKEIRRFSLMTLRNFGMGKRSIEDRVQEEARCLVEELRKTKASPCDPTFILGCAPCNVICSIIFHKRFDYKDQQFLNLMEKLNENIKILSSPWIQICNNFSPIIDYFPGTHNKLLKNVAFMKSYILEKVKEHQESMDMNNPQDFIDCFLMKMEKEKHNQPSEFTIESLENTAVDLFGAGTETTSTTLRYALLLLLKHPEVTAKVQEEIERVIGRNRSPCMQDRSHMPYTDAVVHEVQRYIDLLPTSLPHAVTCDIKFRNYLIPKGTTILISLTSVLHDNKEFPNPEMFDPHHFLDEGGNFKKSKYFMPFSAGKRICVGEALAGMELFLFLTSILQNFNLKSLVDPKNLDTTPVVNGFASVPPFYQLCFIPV
pIC50: −log10 of the molar value.

RECORD_SMILES | TARGET | pIC50
COc1ncc2cc1NS(=O)(=O)c1cccc(c1)C(=O)NCC1=CC=C(S1)c1ncnc3c1SC2=C3C | Cytochrome P450 2C9 (Homo sapiens) | 5.34

---

Each entry below carries its reported pKi.
target: PI3-kinase p110-delta/p85-alpha (Homo sapiens); assay: Inhibition of human PI3K p110delta/p85alpha by HTRF assay
Sequence (P27986 whole entry): as the sequence (P27986 whole entry) above
Sequence (O00329 whole entry): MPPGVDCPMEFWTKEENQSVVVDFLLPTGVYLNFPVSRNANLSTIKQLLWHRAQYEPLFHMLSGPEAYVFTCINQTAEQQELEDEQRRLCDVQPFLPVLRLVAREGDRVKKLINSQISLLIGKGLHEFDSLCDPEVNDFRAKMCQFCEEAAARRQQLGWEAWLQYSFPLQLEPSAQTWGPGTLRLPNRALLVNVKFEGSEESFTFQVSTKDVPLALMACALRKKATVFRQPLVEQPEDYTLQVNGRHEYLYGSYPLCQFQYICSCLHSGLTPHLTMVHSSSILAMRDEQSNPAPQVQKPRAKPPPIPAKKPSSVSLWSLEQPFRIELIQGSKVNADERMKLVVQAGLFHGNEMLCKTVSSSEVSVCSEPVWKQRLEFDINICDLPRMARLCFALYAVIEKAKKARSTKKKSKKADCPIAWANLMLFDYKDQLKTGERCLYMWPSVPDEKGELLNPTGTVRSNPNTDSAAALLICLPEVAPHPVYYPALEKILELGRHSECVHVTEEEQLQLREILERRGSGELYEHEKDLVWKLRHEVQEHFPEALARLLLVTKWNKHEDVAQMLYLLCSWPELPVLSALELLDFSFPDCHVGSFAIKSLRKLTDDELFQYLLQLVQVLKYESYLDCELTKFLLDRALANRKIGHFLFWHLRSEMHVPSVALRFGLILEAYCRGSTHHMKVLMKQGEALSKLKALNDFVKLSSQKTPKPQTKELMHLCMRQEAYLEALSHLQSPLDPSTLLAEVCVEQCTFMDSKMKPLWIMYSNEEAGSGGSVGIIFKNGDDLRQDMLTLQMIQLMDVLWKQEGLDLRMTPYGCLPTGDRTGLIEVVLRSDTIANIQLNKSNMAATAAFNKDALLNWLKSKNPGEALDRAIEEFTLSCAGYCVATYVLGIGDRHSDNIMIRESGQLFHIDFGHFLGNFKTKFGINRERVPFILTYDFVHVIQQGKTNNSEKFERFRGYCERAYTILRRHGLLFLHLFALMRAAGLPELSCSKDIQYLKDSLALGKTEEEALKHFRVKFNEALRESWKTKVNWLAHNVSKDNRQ
pKi: −log10 of the molar value.

RECORD_SMILES | pKi
COc1ncc2cc1NS(=O)(=O)c1ccc(F)c(c1)C(=O)NCC1=CC=C(S1)c1ncnc3c1SC2=C3C | 9.89
COc1ncc2cc1NS(=O)(=O)c1cccc(c1)C(=O)NCC1=CC=C(S1)c1ncnc3c1SC2=C3C | 10.10

---

pIC50: −log10 of the molar value.
The following compounds have recorded pIC50 on Serine/threonine-protein kinase pim-1 (Homo sapiens).
MEASURED_ATTRIBUTE: pIC50

RECORD_SMILES | TARGET | VAL
COc1ncc2cc1NS(=O)(=O)c1cccc(c1)C(=O)NC[C@@H]1CCN(C1)c1ncnc3c1SC2=C3C | Serine/threonine-protein kinase pim-1 (Homo sapiens) | 6.91
COc1ccc2cc1C(=O)NCC1=CC=C(S1)c1ncnc3c1SC(=C3)c1cnc(OC)c(c1)NS2(=O)=O | Serine/threonine-protein kinase pim-1 (Homo sapiens) | 7.18
COc1ncc2cc1NS(=O)(=O)c1cccc(c1)C(=O)NCCn1cc(cn1)-c1ncnc3c1SC2=C3C | Serine/threonine-protein kinase pim-1 (Homo sapiens) | 6.75
COc1ncc2cc1NS(=O)(=O)c1cccc(c1)C(=O)NCc1cncc(c1)-c1ncnc3c1SC2=C3C | Serine/threonine-protein kinase pim-1 (Homo sapiens) | 7.37

---

test: Clearance in BALB/c mouse at 0.7 mg/kg, iv; type: ADME, organism-based; conditions: in vivo

RECORD_SMILES | UNIT_NAME | clearance
COc1ncc2cc1NS(=O)(=O)c1ccc(F)c(c1)C(=O)NCC1=CC=C(S1)c1ncnc3c1SC2=C3C | mL/min/kg | 1.05

---

test: Half life in BALB/c mouse at 1 mg/kg, iv; type: ADME, organism-based; conditions: in vivo

RECORD_SMILES | half-life, h
COc1ncc2cc1NS(=O)(=O)c1cccc(c1)C(=O)NCC1=CC=C(S1)c1ncnc3c1SC2=C3C | 3.66

---

assay: Microsomal stability in rat liver microsomes incubated for 30 mins by LC-MS/MS analysis; type: ADME, Microsome; conditions: read-out: Stabilty

RECORD_SMILES | remaining at 0.5 h [%]
COc1ncc2cc1NS(=O)(=O)c1cccc(c1)C(=O)NCC1=CC=C(S1)c1ncnc3c1SC2=C3C | 87

---

molecular target: Phosphatidylinositol 4,5-bisphosphate 3-kinase catalytic subunit alpha isoform (Homo sapiens, UniProt P42336); assay: Inhibition of PI3Kalpha (unknown origin) by ADP-Glo assay
Sequence (P42336 whole entry, canonical isoform): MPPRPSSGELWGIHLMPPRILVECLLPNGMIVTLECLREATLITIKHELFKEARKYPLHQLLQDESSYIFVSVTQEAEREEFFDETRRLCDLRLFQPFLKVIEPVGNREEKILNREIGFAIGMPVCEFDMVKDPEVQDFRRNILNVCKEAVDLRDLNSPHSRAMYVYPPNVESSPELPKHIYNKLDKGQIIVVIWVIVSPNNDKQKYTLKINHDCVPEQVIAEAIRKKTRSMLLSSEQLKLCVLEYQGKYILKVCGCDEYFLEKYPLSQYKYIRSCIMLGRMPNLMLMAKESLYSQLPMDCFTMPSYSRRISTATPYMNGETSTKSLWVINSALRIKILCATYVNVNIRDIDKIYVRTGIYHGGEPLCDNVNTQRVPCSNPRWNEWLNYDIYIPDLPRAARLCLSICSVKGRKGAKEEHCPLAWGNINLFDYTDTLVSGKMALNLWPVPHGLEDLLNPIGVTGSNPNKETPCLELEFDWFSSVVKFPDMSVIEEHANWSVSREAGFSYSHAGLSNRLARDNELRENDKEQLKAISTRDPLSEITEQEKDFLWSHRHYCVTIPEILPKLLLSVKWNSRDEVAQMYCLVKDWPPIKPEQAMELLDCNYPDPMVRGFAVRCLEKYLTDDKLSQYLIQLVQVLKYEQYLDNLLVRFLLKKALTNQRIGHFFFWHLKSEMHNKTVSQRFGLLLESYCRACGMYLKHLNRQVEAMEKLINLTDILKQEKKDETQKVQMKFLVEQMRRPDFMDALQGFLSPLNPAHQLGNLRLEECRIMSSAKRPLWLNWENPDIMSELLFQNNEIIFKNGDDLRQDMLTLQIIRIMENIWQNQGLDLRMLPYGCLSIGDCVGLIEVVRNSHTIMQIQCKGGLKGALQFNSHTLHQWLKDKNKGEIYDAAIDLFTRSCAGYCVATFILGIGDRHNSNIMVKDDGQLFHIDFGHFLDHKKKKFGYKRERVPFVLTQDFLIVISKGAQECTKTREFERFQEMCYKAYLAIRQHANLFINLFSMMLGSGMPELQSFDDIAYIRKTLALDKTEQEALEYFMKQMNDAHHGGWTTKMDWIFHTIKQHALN
Each entry below carries its reported log10 IC50.
MEASURED_ATTRIBUTE: log10 IC50 (log10 of the value in µM)

RECORD_SMILES | log10 IC50
COc1ncc2cc1NS(=O)(=O)c1cccc(c1)C(=O)NCc1cncc(c1)-c1ncnc3c1SC2=C3 | -1.13
COc1ncc2cc1NS(=O)(=O)c1cccc(c1)C(=O)NCCn1cc(cn1)-c1ncnc3c1SC2=C3C | -3.37
COc1ncc2cc1NS(=O)(=O)c1cccc(c1)C(=O)NCC1=C(C)C=C(S1)c1ncnc3c1SC2=C3 | -2.13
COc1ncc2cc1NS(=O)(=O)c1cccc(c1)C(=O)NCCn1cc(cn1)-c1ncnc3c1SC2=C3 | -1.23
COc1ncc2cc1NS(=O)(=O)c1ccc(Cl)c(c1)C(=O)NCC1=CC=C(S1)c1ncnc3c1SC2=C3 | -2.20
COc1ncc2cc1NS(=O)(=O)c1cccc(c1)C(=O)NCc1nc(cs1)-c1ncnc3c1SC2=C3 | -0.91
COc1ncc2cc1NS(=O)(=O)c1cccc(c1)C(=O)NCc1cccc(c1)-c1ncnc3c1SC2=C3 | -1.77
COc1ncc2cc1NS(=O)(=O)c1cccc(c1)C(=O)NCC1=CC=C(S1)c1ncnc3c1SC2=C3 | -1.77

---

assay: AUClast in BALB/c mouse at 10 mg/kg, po; format: ADME, organism-based; parameters: time 0 - last, route oral, dose 10 mg/kg; details: in vivo

RECORD_SMILES | AUC(0-t), ng·h/mL
COc1ncc2cc1NS(=O)(=O)c1cccc(c1)C(=O)NCC1=CC=C(S1)c1ncnc3c1SC2=C3C | 58200

Attribution: ChEMBL document CHEMBL4842397
